Value source: ChEMBL document CHEMBL3992497

test system: MV4-11; assay: Antiproliferative activity against human MV4-11 cells after 72 hrs by MTT assay; assay type: functional; conditions: MV4-11, 72 h
Listed below: GI50 values for each entry.

Sample answers from the record:
* O=C(c1ccccc1)n1ccc2c3c(=O)cc(-c4ccccc4)[nH]c3ccc21 | 2 nM
* CS(=O)(=O)N1CCc2cc3[nH]c(-c4ccccc4)cc(=O)c3cc21 | > 10000 nM
* CS(=O)(=O)n1ccc2c3c(=O)cc(-c4ccccc4)[nH]c3ccc21 | 49 nM
* O=C(C1CC1)n1ccc2c3c(=O)cc(-c4ccccc4)[nH]c3ccc21 | 19 nM

Continue with the next compound.
Enquiry: Give recorded GI50 with MV4-11 for the following compound: "O=C(c1ccccc1)N1CCc2cc3[nH]c(-c4ccccc4)cc(=O)c3cc21"
Return: 1980 nM
